# TARGET UNDER TEST: PDK1 (Homo sapiens (Human))
# Sequence (O15530 51-359): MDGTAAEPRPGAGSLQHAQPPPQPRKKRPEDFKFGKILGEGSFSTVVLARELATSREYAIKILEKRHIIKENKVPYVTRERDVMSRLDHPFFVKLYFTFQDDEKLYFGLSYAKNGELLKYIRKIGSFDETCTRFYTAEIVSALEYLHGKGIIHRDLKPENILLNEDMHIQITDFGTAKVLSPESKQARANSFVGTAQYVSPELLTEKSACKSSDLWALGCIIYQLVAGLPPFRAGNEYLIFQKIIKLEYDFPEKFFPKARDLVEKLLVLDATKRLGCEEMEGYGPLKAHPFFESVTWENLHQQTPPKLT
# TEST NAME: PDK1 kinase assay (coupled PDK1/AKT/FAM-crosstide assay, IMAP fluorescence polarization)
# Type: biochemical
# CONDITION LABEL: inhibition of PDK1 in vitro
EXPERIMENTAL READOUT: IC50

INSERT INTO assay_data (smiles_code, experimental_readout, measured) VALUES
  ('Nc1ncnc2ccc(-c3ccc(CNc4ncc(S(=O)(=O)NCCO)cc4C(=O)NCc4ccc(F)c(F)c4)s3)cc12', 'IC50', '< 100 nM');

Print PDK1 (Homo sapiens (Human)) IC50 for Cn1cnc(CNC(=O)c2cc(C(F)(F)F)cnc2NCc2ccc(-c3cnc4[nH]nc(N)c4c3)cc2)c1 .
1000 to 5000 nM

Print PDK1 (Homo sapiens (Human)) IC50 for C[C@H](NC(=O)c1cccnc1NCc1ccc(-c2ccc3ncnc(N4CCC4)c3c2)s1)c1ccc(F)c(F)c1 .
< 100 nM

Print PDK1 (Homo sapiens (Human)) IC50 for Nc1ncnc2c1c(-c1ccc(CNc3ncc(C(F)(F)F)cc3C(=O)Nc3ccc(F)cc3)cc1)cn2CCCO .
< 100 nM

Print PDK1 (Homo sapiens (Human)) IC50 for C#CCNC(=O)c1cc(C(F)(F)F)cnc1NCc1ccc(-c2cnc3[nH]nc(N)c3c2)cc1 .
100 to 1000 nM

Print PDK1 (Homo sapiens (Human)) IC50 for N#Cc1cccc(NC(=O)c2cc(C(F)(F)F)cnc2NCc2ccc(-c3cnc4[nH]nc(N)c4c3)cc2)c1 .
< 100 nM

Print PDK1 (Homo sapiens (Human)) IC50 for C[C@H](NC(=O)c1cc(C#N)cnc1NCc1ccc(-c2cnc(N)c(O[C@H]3CCNC3)n2)cc1)c1ccc(F)cc1 .
< 100 nM

----------
# TARGET UNDER TEST: PDK1 (Homo sapiens (Human))
# TEST NAME: PDK1 kinase assay (coupled PDK1/AKT/FAM-crosstide assay, IMAP fluorescence polarization)
# Assay type: biochemical
# CONDITION LABEL: inhibition of phospo-PDK1 in vitro
EXPERIMENTAL READOUT: IC50

INSERT INTO results (smiles_code, experimental_readout, measured) VALUES
  ('CCCS(=O)(=O)Nc1cnc(NCc2ccc(-c3ccc4ncnc(N)c4c3)s2)c(C(=O)NCc2ccc(F)c(F)c2)c1', 'IC50', '1000 to 5000 nM'),
  ('CCOc1ccnc(NCc2ccc(-c3ccc4ncnc(N)c4c3)s2)c1C(=O)N[C@@H](C)c1ccc(F)cc1', 'IC50', '100 to 1000 nM'),
  ('Nc1ncnc2ccc(-c3ccc(CNc4ncsc4C(=O)NCc4ccc(F)c(F)c4)s3)cc12', 'IC50', '< 100 nM'),
  ('O=C(NCc1ccc(F)c(F)c1)c1cccnc1NCc1ccc(-c2ccc3ncccc3c2)s1', 'IC50', '< 100 nM'),
  ('Nc1ncnc2ccc(-c3cnc(CNc4ncccc4C(=O)NCc4ccc(F)c(F)c4)s3)cc12', 'IC50', '100 to 1000 nM'),
  ('Nc1ncnc2ccc(-c3nc(CNc4ncccc4C(=O)NCc4ccc(F)c(F)c4)cs3)cc12', 'IC50', '< 100 nM'),
  ('C=C(C)c1cnc(NCc2ccc(-c3ccc4ncnc(N)c4c3)s2)c(C(=O)NCc2ccc(F)c(F)c2)n1', 'IC50', '< 100 nM');

Now for a further compound.
Print PDK1 (Homo sapiens (Human)) IC50 for N#Cc1cnc(NCc2ccc(-c3cnc4[nH]nc(N)c4c3)cc2)c(C(=O)Nc2ccc(F)cc2)c1 .
< 100 nM

Just for reference, patent US10030016B2 is where these values come from.
